The values you see were collected from patent US8476300B2.

# System Under Test: UniProt:Q92731
# Sequence (Q92731 whole entry): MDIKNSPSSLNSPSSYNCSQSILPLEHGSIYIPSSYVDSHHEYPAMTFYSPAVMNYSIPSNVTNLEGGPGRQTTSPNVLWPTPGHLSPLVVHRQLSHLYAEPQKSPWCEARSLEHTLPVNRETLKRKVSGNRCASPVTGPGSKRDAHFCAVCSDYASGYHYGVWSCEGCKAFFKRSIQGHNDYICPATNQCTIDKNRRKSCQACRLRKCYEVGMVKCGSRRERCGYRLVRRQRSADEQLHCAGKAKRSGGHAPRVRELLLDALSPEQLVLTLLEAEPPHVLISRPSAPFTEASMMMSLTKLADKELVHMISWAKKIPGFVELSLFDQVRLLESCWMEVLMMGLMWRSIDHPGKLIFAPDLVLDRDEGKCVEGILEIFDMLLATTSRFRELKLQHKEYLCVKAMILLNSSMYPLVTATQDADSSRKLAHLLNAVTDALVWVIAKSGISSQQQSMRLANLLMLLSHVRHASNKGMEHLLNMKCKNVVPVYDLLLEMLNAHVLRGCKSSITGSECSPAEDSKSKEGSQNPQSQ
Experimental Endpoint: Ki (nM)
Answers are plain numbers, in nM.

IN: Look up Ki with UniProt:Q92731 for this compound: Cc1ccc(-c2ccc3cc(O)ccc3c2Oc2ccc(OCCN3CCCCC3)cc2)s1.Cl [Example 1, hydrochloride]
OUT: 0.2

* * *

# System Under Test: ERα receptor (Homo sapiens)
# Sequence (P03372 whole entry): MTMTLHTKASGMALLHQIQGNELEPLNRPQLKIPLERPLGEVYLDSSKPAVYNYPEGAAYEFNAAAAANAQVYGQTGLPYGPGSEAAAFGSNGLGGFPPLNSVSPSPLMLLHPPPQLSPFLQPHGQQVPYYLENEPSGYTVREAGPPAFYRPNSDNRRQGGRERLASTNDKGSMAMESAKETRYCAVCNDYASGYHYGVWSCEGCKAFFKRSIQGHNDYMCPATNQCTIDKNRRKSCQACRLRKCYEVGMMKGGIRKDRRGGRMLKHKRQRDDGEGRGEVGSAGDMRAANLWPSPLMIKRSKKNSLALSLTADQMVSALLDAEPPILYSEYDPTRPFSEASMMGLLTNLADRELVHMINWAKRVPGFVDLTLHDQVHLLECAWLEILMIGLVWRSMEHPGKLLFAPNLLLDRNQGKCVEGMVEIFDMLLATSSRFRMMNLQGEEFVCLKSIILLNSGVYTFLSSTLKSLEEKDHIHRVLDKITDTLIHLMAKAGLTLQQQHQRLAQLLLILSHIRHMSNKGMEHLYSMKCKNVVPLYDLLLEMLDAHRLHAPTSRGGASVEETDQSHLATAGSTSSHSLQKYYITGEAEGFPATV
Experimental Endpoint: pKi
Give bare numbers, as −log10 of the molar value.

IN: Quick check: pKi of Cc1ccc(-c2ccc3cc(O)ccc3c2Oc2ccc(OCCN3CCCCC3)cc2)s1.Cl [Example 1, hydrochloride] ?
OUT: 9.82
